# system: mu opioid receptor (Rattus norvegicus, UniProt P33535)
# Construct: from tissue; host or cells: forebrain of male Wistar rats
# Sequence (P33535 whole entry): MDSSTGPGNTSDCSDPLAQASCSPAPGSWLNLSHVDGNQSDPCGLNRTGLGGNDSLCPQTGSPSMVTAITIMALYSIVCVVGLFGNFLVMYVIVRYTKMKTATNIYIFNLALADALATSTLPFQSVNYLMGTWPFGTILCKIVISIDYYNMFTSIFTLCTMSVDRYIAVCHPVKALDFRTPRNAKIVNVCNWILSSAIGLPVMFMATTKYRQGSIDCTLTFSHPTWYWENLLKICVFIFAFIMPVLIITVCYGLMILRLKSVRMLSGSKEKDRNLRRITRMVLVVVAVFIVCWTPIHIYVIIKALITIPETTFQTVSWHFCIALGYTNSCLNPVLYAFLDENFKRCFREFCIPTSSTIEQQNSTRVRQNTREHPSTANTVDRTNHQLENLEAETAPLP
# assay notes: Rat Brain Mu Opioid Receptor Binding Assay (and Version 2a, [3H]DAMGO)
# settings: rat forebrain membranes, margin of error 10-20%, read-out: r Ki μ
reported property: log10(Ki) (log10 of the value in nM)
Could you please treat all values as log10 of Ki in nM?

# molecule, system, log10(Ki)
measured = [
    ("COc1ccc(CN(C(=O)[C@@H](N)Cc2c(C)cc(C(N)=O)cc2C)[C@@H](C)c2nc(-c3ccccc3)c[nH]2)cc1-c1nnn[nH]1", "mu opioid receptor (Rattus norvegicus, UniProt P33535)", -0.29),
    ("COc1ccc(CN(C(=O)[C@@H](N)Cc2c(C)cc(C(N)=O)cc2C)[C@@H](C)c2nc(-c3cccc(Br)c3)c[nH]2)cc1C(=O)O", "mu opioid receptor (Rattus norvegicus, UniProt P33535)", -0.37),
    ("Cc1cc(O)cc(C)c1C[C@H](N)C(=O)N(Cc1cccc(C(=O)O)c1)[C@@H](C)c1nc(-c2ccccc2)c[nH]1", "mu opioid receptor (Rattus norvegicus, UniProt P33535)", -0.85),
    ("Cc1cc(O)cc(C)c1C[C@H](N)C(=O)N(Cc1ccccc1)[C@H](C)c1nc(-c2ccccc2)c[nH]1", "mu opioid receptor (Rattus norvegicus, UniProt P33535)", 2.20),
    ("Cc1cc(C(N)=O)cc(C)c1C[C@H](N)C(=O)N(Cc1ccccc1C(N)=O)[C@@H](C)c1nc(-c2ccccc2)c[nH]1", "mu opioid receptor (Rattus norvegicus, UniProt P33535)", 0.04),
]

Hi team, please reply with log10(Ki) for each item in this list.
1. Cc1cc(O)cc(C)c1C[C@H](N)C(=O)N[C@H](c1nc(-c2ccccc2)c[nH]1)C(C)C
2. Cc1cc(C(=O)N2CCOCC2)cc(C)c1C[C@H](N)C(=O)N(C)[C@@H](C)c1nc(-c2ccccc2)c[nH]1
3. COC(=O)c1cc(CN(C(=O)[C@@H](N)Cc2ccc(O)cc2)[C@@H](C)c2nc(-c3ccccc3)c[nH]2)ccc1OC
4. CC(C)[C@H](NC(=O)[C@@H](N)Cc1cccc(C#N)c1)c1nc(-c2ccccc2)c[nH]1
5. Cc1cc(O)cc(C)c1C[C@H](N)C(=O)N(Cc1nc(-c2ccccc2)c[nH]1)C1CCCCC1
6. Cc1ccccc1-c1nc(CN(C(=O)[C@@H](N)Cc2c(C)cc(O)cc2C)C(C)C)[nH]c1C

Solution:
1. 2.08
2. 3.85
3. -0.86
4. 3.73
5. 0.42
6. -1.15

Hi team, please reply with log10(Ki) for each item in this list.
1. CN[C@@H](Cc1ccc(O)cc1)C(=O)N(Cc1ccc(OC)c(C(=O)O)c1)[C@@H](C)c1nc(-c2ccccc2)c[nH]1
2. C[C@H](c1nc(-c2ccccc2)c[nH]1)N(C)C(=O)[C@@H](N)Cc1ccc(C(N)=O)cc1
3. COc1ccc(CN(C(=O)[C@@H](N)Cc2c(C)cc(C(N)=O)cc2C)[C@H](C)c2nc(-c3ccc(Cl)cc3)c(C)[nH]2)cc1C(=O)O
4. C[C@@H](c1nc(-c2ccccc2)c[nH]1)N(Cc1ccccc1)C(=O)[C@@H](N)Cc1ccc(O)cc1
5. CC(C)N(Cc1nc(-c2ccccc2)c[nH]1)C(=O)[C@@H](N)Cc1ccc(O)cc1

Solution:
0.04
1.46
1.08
-0.06
0.97

Hi team, please reply with log10(Ki) for each item in this list.
1. COC(=O)c1cc(CN(C(=O)[C@@H](N)Cc2c(C)cc(C(N)=O)cc2C)[C@H](C)c2nc(-c3ccccc3)c[nH]2)ccc1OC
2. Cc1cc(O)cc(C)c1C[C@H](N)C(=O)N(Cc1nc(-c2ccc(F)cc2)c(C)[nH]1)C(C)C
3. COc1ccc(CN(C(=O)[C@@H](N)Cc2c(C)cc(O)cc2C)[C@@H](C)c2nc(-c3ccccc3)c[nH]2)cc1C(=O)Nc1ccc(C(=O)O)cc1
4. CCOc1cccc(CN(C(=O)[C@@H](N)Cc2c(C)cc(O)cc2C)[C@@H](C)c2nc(-c3ccccc3)c[nH]2)c1
5. COc1ccc(CN(C(=O)[C@@H](N)Cc2c(C)cccc2C)[C@@H](C)c2nc(-c3ccccc3)c[nH]2)cc1C(=O)O
6. N[C@@H](Cc1ccc(O)cc1)C(=O)N(Cc1nc(-c2ccccc2)c[nH]1)C1CCCCC1
7. Cc1cc(C(N)=O)cc(C)c1C[C@H](N)C(=O)N(Cc1ccc(C(=O)O)cc1)[C@@H](C)c1nc(-c2ccccc2)c[nH]1

Solution:
1. 0.48
2. -1.52
3. 0.08
4. -1.10
5. -0.19
6. 2.28
7. 0.23

Hi team, please reply with log10(Ki) for each item in this list.
1. COC(=O)c1cccc(CN(C(=O)[C@@H](N)Cc2c(C)cc(C(N)=O)cc2C)[C@@H](C)c2nc(-c3ccccc3)c[nH]2)c1
2. Cc1cc(C(=O)N2CCOCC2)cc(C)c1C[C@H](N)C(=O)N(C)[C@H](C)c1nc(-c2ccccc2)c[nH]1
3. Cc1cc(O)cc(C)c1C[C@H](N)C(=O)N(Cc1nc(-c2ccccc2)c[nH]1)C(C)CN(C)C (stereo partly shown)

Solution:
-0.80
3.08
0.50

Hi team, please reply with log10(Ki) for each item in this list.
1. C[C@H](NC(=O)[C@@H](N)Cc1ccc(O)cc1)c1nc(-c2ccccc2)c[nH]1
2. Cc1cc(O)cc(C)c1C[C@H](N)C(=O)N(Cc1ccc(OC(C)C)cc1)[C@@H](C)c1nc(-c2ccccc2)c[nH]1

Solution:
1: 3.10; 2: -1.22

###

# system: human delta subtype 2 opioid receptor (Homo sapiens)
# Sequence (P41143 whole entry): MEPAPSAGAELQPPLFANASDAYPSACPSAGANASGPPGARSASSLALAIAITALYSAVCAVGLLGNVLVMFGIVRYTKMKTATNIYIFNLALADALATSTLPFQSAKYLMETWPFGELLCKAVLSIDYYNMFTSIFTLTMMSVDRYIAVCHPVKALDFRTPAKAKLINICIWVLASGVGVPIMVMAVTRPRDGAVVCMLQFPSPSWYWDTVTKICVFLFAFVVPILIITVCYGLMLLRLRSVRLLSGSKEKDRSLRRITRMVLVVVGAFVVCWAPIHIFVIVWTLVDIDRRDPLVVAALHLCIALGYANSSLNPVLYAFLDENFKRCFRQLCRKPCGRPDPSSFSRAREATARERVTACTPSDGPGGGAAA
# assay notes: Human Delta Opioid Receptor Binding Assay (CHO membranes, 3H-Naltrindole)
# settings: read-out: hKi δ
Could you please report measured Ki for the items listed next?
Numbers only, in nM.

Example compounds with recorded Ki:
# compound, system, reported property, recorded number
records = [
    ("Cc1cc(O)cc(C)c1C[C@H](N)C(=O)N(Cc1cccc2ccccc12)[C@@H](C)c1nc(-c2ccccc2)c[nH]1 [Cpd 99]", "human delta subtype 2 opioid receptor (Homo sapiens)", "Ki", 19.3),
    ("Cc1cc(C(N)=O)cc(C)c1C[C@H](N)C(=O)N(C(C)C)[C@@H](CO)c1nc(-c2ccccc2)c[nH]1 [Cpd 85]", "human delta subtype 2 opioid receptor (Homo sapiens)", "Ki", 1170),
    ("Cc1cc(C(N)=O)cc(C)c1C[C@H](N)C(=O)N(C(C)c1ccccc1)[C@@H](C)c1nc(-c2ccccc2)c[nH]1 (single isomer, unassigned) [Cpd 112]", "human delta subtype 2 opioid receptor (Homo sapiens)", "Ki", 135),
    ("Cc1cc(O)cc(C)c1C[C@H](N)C(=O)N(Cc1nc(-c2ccc(N(C)C)cc2)c(C)[nH]1)C(C)C [Cpd 66]", "human delta subtype 2 opioid receptor (Homo sapiens)", "Ki", 550),
    ("Cc1cc(O)cc(C)c1C[C@H](N)C(=O)N(Cc1cccc(Br)c1)[C@@H](C)c1nc(-c2ccccc2)c[nH]1 [Cpd 101]", "human delta subtype 2 opioid receptor (Homo sapiens)", "Ki", 47),
    ("Cc1cc(C(N)=O)cc(C)c1C[C@H](N)C(=O)N(C(C)c1ccccc1)[C@@H](C)c1nc(-c2ccccc2)c[nH]1 (single isomer, unassigned) [Cpd 111]", "human delta subtype 2 opioid receptor (Homo sapiens)", "Ki", 307),
    ("Cc1cc(O)cc(C)c1C[C@H](N)C(=O)N(Cc1nc(-c2cc(F)cc(F)c2)c(C)[nH]1)C(C)C [Cpd 126]", "human delta subtype 2 opioid receptor (Homo sapiens)", "Ki", 164),
    ("COc1ccccc1CN(C(=O)[C@@H](N)Cc1c(C)cc(O)cc1C)[C@@H](C)c1nc(-c2ccccc2)c[nH]1 [Cpd 96]", "human delta subtype 2 opioid receptor (Homo sapiens)", "Ki", 14.6),
    ("Cc1cc(O)cc(C)c1C[C@H](N)C(=O)N(Cc1nc(-c2ccc(Cl)cc2)c(C)[nH]1)C(C)C [Cpd 147]", "human delta subtype 2 opioid receptor (Homo sapiens)", "Ki", 241),
    ("COc1ccccc1-c1nc(CN(C(=O)[C@@H](N)Cc2c(C)cc(O)cc2C)C(C)C)[nH]c1C [Cpd 135]", "human delta subtype 2 opioid receptor (Homo sapiens)", "Ki", 1040),
]

Hi team, please reply with Ki for each item in this list.
1. Cc1cc(O)cc(C)c1C[C@H](N)C(=O)N(Cc1nc(-c2cccc(O)c2)c(C)[nH]1)C(C)C [Cpd 68]
2. Cc1cc(O)cc(C)c1C[C@H](N)C(=O)N(Cc1ccc2ccccc2c1)[C@@H](C)c1nc(-c2ccccc2)c[nH]1 [Cpd 100]
3. COC(=O)c1ccc(CN(C(=O)[C@@H](N)Cc2c(C)cc(O)cc2C)[C@@H](C)c2nc(-c3ccccc3)c[nH]2)cc1 [Cpd 89]

Solution:
[59, 88, 19.3]

Hi team, please reply with Ki for each item in this list.
1. Cc1cc(O)cc(C)c1C[C@H](N)C(=O)N(Cc1nc(-c2cc(F)ccc2F)c(C)[nH]1)C(C)C [Cpd 61]
2. Cc1cc(C(N)=O)cc(C)c1C[C@H](N)C(=O)N(Cc1nc(-c2ccccc2)c[nH]1)C(C)C [Cpd 86]
3. Cc1cc(O)cc(C)c1C[C@H](N)C(=O)N(Cc1nc(-c2cccc(-c3ccccc3)c2)c(C)[nH]1)C(C)C [Cpd 134]
4. Cc1cc(C(N)=O)cc(C)c1C[C@H](N)C(=O)N(Cc1nc(-c2ccccc2)c[nH]1)[C@H](C)c1ccccc1 [Cpd 94]

Solution:
1: 243; 2: 400; 3: 463; 4: 403

Hi team, please reply with Ki for each item in this list.
1. Cc1cc(O)cc(C)c1C[C@H](N)C(=O)N(Cc1nc(-c2ccc3ccccc3c2)c(C)[nH]1)C(C)C [Cpd 150]
2. Cc1cc(C(N)=O)cc(C)c1C[C@H](N)C(=O)N(Cc1ccccc1)[C@@H](C)c1nc(-c2ccc(F)cc2)c[nH]1 [Cpd 76]
3. CC(=O)Nc1ccc(CN(C(=O)[C@@H](N)Cc2c(C)cc(O)cc2C)[C@@H](C)c2nc(-c3ccccc3)c[nH]2)cc1 [Cpd 79]
4. Cc1cc(O)cc(C)c1C[C@H](N)C(=O)N(Cc1nc(-c2cncnc2)c(C)[nH]1)C(C)C [Cpd 131]
5. CCN(C(=O)[C@@H](N)Cc1c(C)cc(O)cc1C)[C@H](C)c1nc(-c2ccccc2)c[nH]1 [Cpd 217]

Solution:
[992, 43.1, 11.5, 675, 506]
